# method_description: NCI Yeast Anticancer Drug Screen. Data for the bub3 strain (AID 167)
# settings: S. cerevisiae bub3 mutant strain, at 50.0 µM, hits give high values
The panel holds about 79,000 compounds, 15% with a hit somewhere; the sample as a whole holds those more often.
readout_label: growth inhibition (%)

compound	recorded_value
Nc1cc(Cl)c(I)c(Cl)c1	-2.15
Cc1ccc(OS(=O)(=O)NC(=O)NCc2ccco2)cc1	3.95
COC(C)CCOC(=O)COc1ccccc1 (centres undefined)	13.8
CCCCOCCOC(=O)C(C)O (centres undefined)	-1
CC1(C)OC(=O)CC1CCN (centres undefined)	14.9
Oc1ccccc1C=NCCCN=Cc1ccccc1O	48.8
CC(=O)Oc1nc2ccccc2n1C(C)=O	39.5
O=C(OCC1OC(OC(=O)c2ccc([N+](=O)[O-])cc2)CC(OC(=O)c2ccc([N+](=O)[O-])cc2)C1OC(=O)c1ccc([N+](=O)[O-])cc1)c1ccc([N+](=O)[O-])cc1 (centres undefined)	-4.15
OC(CNc1ncccn1)(Cc1ccccc1)Cc1ccccc1	12
O=[N+]([O-])c1nccn1CCCNc1c2ccccc2nc2ccccc12	6.5
O=C(O)Cc1ccc(Br)cc1	1.1
Cc1cc(=O)oc2c1ccc1occc(=O)c12	11.9
COC(OC)c1cccnc1C	-23.5
CCC1NC(N=Nc2ccc([N+](=O)[O-])cc2)(P(=O)(OC(C)C)OC(C)C)OC1=O (centres undefined)	17.5
O=C1C=CC2(CC=CCC2)CC1 (centres undefined)	-11.8
CN(C)C=Nc1c2c(nc3ccccc13)CCCC2	18.9
Cc1cc(=O)c2c([nH]1)c1c(c3[nH]c(C)cc(=O)c32)Oc2ccccc2O1	-5.55
Cc1nc(N)[nH]c(=O)c1CCCNC(=O)c1cccc([N+](=O)[O-])c1	30.5
O=C(C[n+]1ccncc1)c1cccc([N+](=O)[O-])c1	7.65
COc1ccc(C2c3cc4c(cc3OC(C)(OC)C2C)OCO4)c(OC)c1 (centres undefined)	-5.85
CC(O)CCNc1nnc2c3ccccc3n(C)c2n1 (centres undefined)	5.3
O=C(Nc1cc2ccccc2cc1C(=O)O)Nc1cccc2ccccc12	20.1
CSc1cc(Br)ccc1-n1c(C(=O)c2ccccc2)c(SC)n(-c2ccccc2)c1=O	15.7
CCOC(=O)C1C(=S)NC(=O)C1C#N (centres undefined)	11.3
N#CCCCCN1CCCCC1	-14.6
Cc1cccc(C)c1NCC(=O)NN	5.85
Cc1cc(Cl)ccc1N=C1NC(=O)C(CC(=O)Nc2cccc(Cl)c2)S1 (centres undefined)	1.8
ON(Cc1ccccc1)Cc1ccccc1	9.5
O=C1c2ccccc2C(=O)N1C/C(Cl)=C/Cl	8.75
CC1S(=O)(=O)OCCCOS1(=O)=O	-2.45
CC(=O)OC1C[C@H]2C(OC(=O)c3ccccc3)C3C4(OC(C)=O)COC4C[C@H](OC(C)=O)[C@@]3(C)C(OC(C)=O)[C@H](OC(C)=O)C(=C1C)C2(C)C (some centres undefined)	26.4
C/C(CCc1ccccc1Br)=N/NC(N)=O	2.6
O=C1CCCc2c(O)ccc(O)c21	8.15
CCC1OC(=O)CC(O)C(C)C(OC2OC(C)C(O)C(N(C)C)C2O)C(CC=O)CC(C)C(=O)/C=C/C2(C)OC2C1C (centres undefined)	-28.9
Nc1ccc(CC(N)C(=O)O)cc1 (centres undefined)	-6.55
Cc1cc(N=Nc2ccc(O)c3ncccc23)c2ccccc2n1	18
CC(=O)Oc1ccc(C2(OC(C)=O)c3ccccc3C(=O)c3ccccc32)cc1	-8.5
Cn1c2c(c3ccccc31)CCN(CCCCN1CCc3c(n(C)c4ccccc34)C1=O)C2	-5
Clc1ccc2nsnc2c1	18.9
CC1(c2ccccc2)OCC(c2ccccc2)O1 (centres undefined)	12.7
CCOC(=O)c1cnc(N(C)C)nc1SC(=N)N	-7.5
CC(C)CCOCC(O)CNCCN (centres undefined)	-1
CN1NC(=O)SC(=O)c2ccccc2C1=O	0.15
O=C(NC1CCC(CC2CCCCC2)CC1)c1ccccc1 (centres undefined)	10.8
CSc1nc2c(ncn2C2OCC(O)C(O)C2O)c(=O)n1C (centres undefined)	-4.35
CCOC(=O)c1cnc2cc(C)cc(C)c2c1Nc1ccc2c(c1)OCO2	5.45
O=C(OC(c1ccccc1)c1ccccc1)c1ccccc1C(=O)c1ccccc1	-3.25
CCC(C)(O)C#CC(C)(O)CC (centres undefined)	9.8
N#Cc1sc2c(c1OC(=O)c1ccccc1)c(=O)n(-c1ccccc1)c(=S)n2-c1ccccc1	-5.95
